Taken from PubChem BioAssay (NCI).

Test Method Notes: NCI Yeast Anticancer Drug Screen. Data for the cln2 rad14 strain (AID 165);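 further: 0% = growth equal to vehicle treated cultures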
Test Context: S. cerevisiae cln2 rad14 strain, at 50.0 µM
About 79,000 compounds went through this panel and 15% of them were active in at least one assay; those are over-represented in the sample as a whole. Calls of active or inactive are those of the source. No stated cut-off is given here; in the data, active means growth inhibition above about 70%; inactive means the rest.
Permitted responses: T = active, F = inactive

Compound | Category
CCN(CC)CCCNc1cc(C)nc2c1ccc1c2ccc2c(NCCCN(CC)CC)cc(C)nc21 | T
CC(C)C1=C(O)C2=C(C(=O)C1=O)C1(C)CCCC(C)(C)C1C(O)C2OC=O (stereo unspecified) | T
COc1cccc(=O)cc1 | F
COc1ccc(N=N/N=c2\sc3cc(Cl)ccc3n2C)cc1 | F
CN(C)C(=S)/N=c1\ssc(=S)n1C | T

Qu. Which outcome was entered for the compound "O=C(CCn1[nH]c(=O)c(Cl)c(Cl)c1=O)NNc1ccc([N+](=O)[O-])cc1[N+](=O)[O-]" in this test?
Ans. F

* * *

Test Method Notes: NCI Yeast Anticancer Drug Screen. Data for the sgs1 mgt1 strain (AID 161);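 further: 0% = growth of cultures given vehicle only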
Test Context: S. cerevisiae sgs1 mgt1 strain, at 5.0 µM (retest, dose inferred, filed as 0.5), active compounds read high
About 79,000 compounds went through this panel and 15% of them were active in at least one assay; those are over-represented in the sample as a whole.
Classify as follows. Reported growth inhibition greater than or equal to -10%: Criterion met. Reported growth inhibition below: Criterion not met.

Answered examples (3):
Molecule | Category
CCNc1nc(C(F)(F)F)nc2nc[nH]c12 | Criterion not met
CCC(c1ccc(OC)cc1)C(O)(CC)c1ccc(OC)cc1 (stereo unspecified) | Criterion not met
CCN(CC)CCNc1ccc2nnn3c4ccccc4c(=O)c1c23 | Criterion met

Qu. Does the molecule CC(=O)c1ccc2c(c1)CC1(C2)Cc2cc3c(c(C(=O)O)c2C1)CCC3 (stereo unspecified) have recorded growth inhibition that is -10% or more?
Ans. Criterion met

Qu. Does the molecule "O=c1[nH]c2ccccc2c(O)c1/C=N/C(=S)NCCc1ccccc1" have recorded growth inhibition that is -10% or more?
Ans. Criterion met

Qu. Does the molecule "Nc1cc(F)c2c(c1F)C(=O)c1cc(F)ccc1-2" have recorded growth inhibition that is -10% or more?
Ans. Criterion met

* * *

Examples of compounds with documented growth inhibition follow.
Test Method Notes: NCI Yeast Anticancer Drug Screen. Data for the mlh1 rad18 strain (AID 175)
Test Context: S. cerevisiae mlh1 rad18 strain growth inhibition; at 5.0 µM (retest, dose inferred, filed as 0.5); active compounds read high
Description: Growth inhibition of yeast strains with defined genetic alterations is measured as a screen for potential anti-cancer activity. Selected strains with alterations in DNA damage repair or cell cycle control were exposed to compounds and growth inhibition was measured relative to vehicle treated controls. The strain used in this assay is mlh1 rad18
About 79,000 compounds went through this panel and 15% of them were active in at least one assay; those are over-represented in the sample as a whole.
Entry rule: numbers only, all in %.

Compound | Scale Unit | growth inhibition
COC(=O)c1cc(/C=C/c2ccccc2)on1 | % | -3
CCOc1ccnc2c(C)c3c([nH]c4ccccc43)c(C)c12 | % | 16
COC(=O)N/N=C(\c1ccc(O)cc1)C(C)C1(O)C(=O)Nc2ccccc21 (stereo not given) | % | -3
O=C1C(CCl)=CS(=O)(=O)c2ccccc21 | % | 36
Clc1ccc(C2=C(c3ccccc3)C(c3ccc(Cl)cc3)N3C(=N[C@H]4CCCC[C@@H]43)N2)cc1 (stereo not given in full) | % | 7
Cc1ccc2c(c1)-c1c(c3c(c4c1-c1cc(C)ccc1CC4)C(=O)OC3=O)CC2 | % | 9
O=NN(CCCl)C(=O)NCCSSCCNC(=O)N(CCCl)N=O (tested in a mixture with another compound) | % | 73
O=[N+]([O-])c1cc(Cl)cc2c1nc(NCCO)c1ccccc12 | % | 86

Qu. Value lookup for growth inhibition; key = "CCCN(CCC)C(=O)c1nc(N)nc(-c2ccc(OC)cc2)c1-c1ccc(OC)cc1"
Ans. -9

Qu. Value lookup for growth inhibition; key = "CN(C)CC(CN(C)C)C(=O)c1ccc(Oc2ccc(Cl)cc2)cc1"
Ans. 92

* * *

Test Method Notes: NCI Yeast Anticancer Drug Screen. Data for the bub3 strain (AID 167)
Test Context: S. cerevisiae bub3 mutant strain, at 5.0 µM (retest, dose inferred, filed as 0.5), active compounds read high
The panel holds about 79,000 compounds, 15% with a hit somewhere; the sample as a whole holds those more often.
Examples of compounds with documented growth inhibition follow.
Entry rule: numbers only, all in %.

Answered examples (6):
Compound | Scale Unit | growth inhibition
[Cl][Sn]([CH2][CH2][Sn]([Cl])([c]1ccccc1)[c]1ccccc1)([c]1ccccc1)[c]1ccccc1 | % | 96
NNC(=S)N/N=C(\CC1OC(=O)c2ccccc21)c1ccccc1O (stereo not given) | % | -9
O=C(Nc1nnc(-c2ccccc2)s1)c1cc(=O)c2cc(Cl)ccc2o1 | % | 4
C[n+]1c2ccc(Cl)cc2nc2cc(-c3ccccc3)ccc21 | % | 54
CCC[CH2][Sn]([CH2]CCC)([O]C(=O)c1cc(OC)c(OC)cc1OC)[O]C(=O)c1cc(OC)c(OC)cc1OC | % | 85
O=C(C(=O)c1ccc(Cc2ccc(C(=O)C(=O)c3ccccc3)cc2)cc1)c1ccccc1 | % | 2

Qu. Value lookup for growth inhibition; key = "O=C(Nc1ccc(Cl)c(Cl)c1Cl)Oc1c(Cl)c(Cl)c(Cl)c(Cl)c1Cl"
Ans. 10

Qu. Value lookup for growth inhibition; key = "O=C1C(c2ccc(Br)cc2)=[N+]([O-])c2ccccc21"
Ans. 19

Qu. Value lookup for growth inhibition; key = CCCCN(C(=O)c1ccccc1)C1CCC(=O)c2[nH]c3ccccc3c21 (stereo not given)
Ans. -18

Qu. Value lookup for growth inhibition; key = COc1cc(NCC(C)(O)CN2CCC(C)CC2C)c2ncccc2c1 (stereo not given)
Ans. 7

* * *

Test Method Notes: NCI Yeast Anticancer Drug Screen. Data for the rad50 strain (AID 155);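 further: 0% = growth of vehicle-only cultures of the same strain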
Test Context: S. cerevisiae rad50 strain growth inhibition; at 50.0 µM (retest, dose inferred, filed as 5.0); active compounds read high
This is part of a sample that, as a whole, favours compounds with a hit. Of some 79,000 tested, about 15% had one in any assay.
Classify as follows. Reported growth inhibition greater than or equal to 80%: Y. Reported growth inhibition below: N.

Answered examples (3):
Compound | Category
Clc1ccc(C2=CCCc3ccccc32)cc1 | N
C=C1C(=O)OC2C1CCC(=C)C1CC(O)C(=C)C12 (centres undefined) | N
c1ccc(CCC2=Nc3ccccc3CO2)cc1 | N

Qu. Does the compound "Oc1cc(Cl)cc2cc(Cl)cnc12" have recorded growth inhibition that is 80% or more?
Ans. Y

Qu. Does the compound CC1(C)CC(O)C(O)C1 (centres undefined) have recorded growth inhibition that is 80% or more?
Ans. N

Qu. Does the compound "CC(=O)Nc1c([N+](=O)[O-])cc2c3c(cccc13)C=C2" have recorded growth inhibition that is 80% or more?
Ans. N

Qu. Does the compound "COc1cc(C(=O)C=[N+]=[N-])c([N+](=O)[O-])c(OC)c1OC" have recorded growth inhibition that is 80% or more?
Ans. N

Qu. Does the compound "CCCN(CCC)C(=O)c1nc(N)nc(-c2ccc(OC)cc2)c1-c1ccc(OC)cc1" have recorded growth inhibition that is 80% or more?
Ans. N

* * *

Test Method Notes: NCI Yeast Anticancer Drug Screen. Data for the mec2-1 strain (AID 157)
Test Context: S. cerevisiae mec2-1 strain, at 50.0 µM
Compounds without any hit were thinned out: in the full panel of roughly 79,000, 15% have a hit. Activity calls are given as the source filed them. Rule as the data show it: active = growth inhibition above about 70%; inactive = the rest.
Permitted responses: true (1) = active, false (0) = inactive

Answered examples (2):
Compound | Category
O=C(Nc1ccc(F)c(Cl)c1)Oc1ccc(Br)cc1Br | false (0)
COc1ccc2c(c1)c(=O)c1c(NCCN(C)C)ccc3nnn2c31 | false (0)

Qu. Which outcome was entered for the compound "Cc1ccc(C)c2c3c([nH]c12)-c1ccccc1CC3" in this test?
Ans. true (1)

Qu. Which outcome was entered for the compound "CCOC(=O)c1c(Cl)nc2ccccc2c1N=[N+]=[N-]" in this test?
Ans. true (1)

Qu. Which outcome was entered for the compound "CCCCNc1ccc(C(=O)OC2CCN(C)CC2)c(Cl)c1" in this test?
Ans. true (1)

Qu. Which outcome was entered for the compound "CC(=O)Nc1cc(Cl)c2c(c1)C(=O)c1ccccc1-2" in this test?
Ans. false (0)

Qu. Which outcome was entered for the compound "CCC(CC)(c1ccc(C)cc1)c1ccc(C)cc1" in this test?
Ans. true (1)

Qu. Which outcome was entered for the compound "CCCCCCCCC1N(C)CCCN1C" in this test?
Ans. true (1)

Qu. Which outcome was entered for the compound "CCNC(=S)N/N=C(\C)c1cccc(C)n1" in this test?
Ans. true (1)

Qu. Which outcome was entered for the compound COC(=O)C1C(O)C(C)C(=O)C(C)/C=C\C=C(C)C(=O)Nc2c(C)c(OC(C)=O)c3c(c2O)C(=O)C(C)=C2OCOC(=C23)C(C)=CC(C)(O)C(O)C(C)C1O (stereo unspecified) in this test?
Ans. true (1)

Qu. Which outcome was entered for the compound "O=C(O)c1ccc(Br)cc1C(=O)c1ccccc1" in this test?
Ans. false (0)
